# TARGET_OR_TEST_SYSTEM: Histidine--tRNA ligase (Leishmania infantum)
# MEASUREMENT_DESCRIPTION: Leishmania infantum Histidine tRNA synthetase (LdHisRS)
# Type: functional
# Set-up: scale not given: in the data most compounds retested in dose-response had high values
# CONDITION_CONTEXT: 30 µM
Hit rate of the full screen: of about 69,000 compounds, about 420 (0.61%) showed an effect of 50% or more. Only a selection was taken, and strong results are over-represented in it overall.
Kindly return yes (1) if reported Percent Effect is no lower than 20%; return no (0) if it is lower.

- MOLECULE: "O=C1CC(c2ccccc2F)c2c(n3ccsc3nc2=O)N1 (stereo not drawn)"
  CLASS_ASSIGNMENT: "no (0)"

Task: Form field: Percent Effect at least 20%? Entry: CCCn1nccc1C(=O)N1CCN(C(=O)C2CC2)[C@@H]2CS(=O)(=O)C[C@@H]21
Output: no (0)

Task: Further, for CNc1cc2c(nn1)CCN(C(=O)c1coc(Br)c1)C2 ?
Output: yes (1)

Task: Further, for Cc1ccc(-c2nnc(CN3CCOC(Cn4cncn4)C3)o2)cc1 (stereo not drawn) ?
Output: no (0)

Task: Further, for O=C(c1ncccn1)N1C[C@@H]2COC[C@]2(c2nnc(C3CC3)o2)C1 ?
Output: yes (1)

Task: Further, for CCCC(=O)Nc1ccc2c(c1)C1(CCOCC1)CN2CCOC ?
Output: yes (1)

Task: Further, for COc1ccc(CNC(=O)Nc2ccc(S(=O)(=O)C(F)F)cc2)cc1 ?
Output: no (0)

----------
# TARGET_OR_TEST_SYSTEM: Histidine--tRNA ligase (Leishmania infantum)
# MEASUREMENT_DESCRIPTION: Leishmania infantum Histidine tRNA synthetase (LdHisRS)
# Format: functional
# Parameters: scale not given: in the data most compounds retested in dose-response had high values
# CONDITION_CONTEXT: 30 µM
The campaign covered roughly 69,000 compounds. About 420 (0.61%) showed an effect of 50% or more. What follows is part of a selection rich in strong results, with near analogues and random picks from the rest.
ENDPOINT: Percent Effect (%)
One number for each entry, in %.

Worked examples, 3 compounds total:
- COMPOUND: "CCc1c(C(=O)N2CCN(C)[C@@H]3CS(=O)(=O)C[C@@H]32)[nH]c2ccccc12"
  TARGET_OR_TEST_SYSTEM: "Histidine--tRNA ligase (Leishmania infantum)"
  VALUE_OBSERVED: 11
- COMPOUND: "Cc1cccc(C(=O)N2CCN(S(C)(=O)=O)[C@@H]3CS(=O)(=O)C[C@@H]32)n1"
  TARGET_OR_TEST_SYSTEM: "Histidine--tRNA ligase (Leishmania infantum)"
  VALUE_OBSERVED: -2.67
- COMPOUND: "CCC1=N[C@@]2(CC[C@@H]3CN(S(C)(=O)=O)C[C@@H]32)C(=O)N1CC(C)C"
  TARGET_OR_TEST_SYSTEM: "Histidine--tRNA ligase (Leishmania infantum)"
  VALUE_OBSERVED: 7.96

Report Percent Effect for each item below.
1. Cc1cccc(CO[C@@H]2CC[C@H]3[C@H]2OCCN3Cc2cc(C)on2)n1
2. NC1CCN(C2CCN(c3ccc(-c4ccco4)cc3)CC2)CC1
3. Cc1ccc(C(=O)N2CCO[C@H]3[C@H](OCCN(C)C)CC[C@@H]32)cn1
4. COc1cc(C(=O)N2CCO[C@H]3[C@H](OCC4CC4)CC[C@@H]32)ccc1F
5. Cc1ccoc1C(=O)N1CCO[C@H]2[C@H](OCC3CCOCC3)CC[C@@H]21
6. CC(C)C(=O)N1CC[C@H]2N(C)CC[C@@]2(C(=O)Nc2ccccc2)CC1
7. CCS(=O)(=O)N1CCO[C@H]2[C@H](Oc3ncccc3F)CC[C@@H]21
8. O=C(O)c1ccccc1C1CCN(C2CCN(c3ccccc3)CC2)C1 (stereo not given)

Output:
22.2
54.8
9.72
12.1
7.55
2.7
8.22
22.7

----------
# TARGET_OR_TEST_SYSTEM: Histidine--tRNA ligase (Leishmania infantum)
# MEASUREMENT_DESCRIPTION: Leishmania infantum Histidine tRNA synthetase (LdHisRS)
# Format: functional
# Design: scale not given: in the data most compounds retested in dose-response had high values
# CONDITION_CONTEXT: 30 µM
Among all 69,000 compounds or so, about 420 (0.61%) showed an effect of 50% or more. What follows is part of a selection rich in strong results, with near analogues and random picks from the rest.
Give measured Percent Effect for each item. Keep answers brief.
Note: a bare number is incomplete; add the unit.

- MOLECULE: "CCOC1CCN(C(=O)NCc2ccc(C(=O)N(C)C(C)C)cc2)CC1"
  Percent Effect: "16.7%"

Report Percent Effect for each item below.
1. Cc1c(CN2CCCCC2)c(O)n(CCCO)c(=O)c1C#N
2. COc1ccc(-n2cc(CNC(=O)c3ccccn3)nn2)cc1
3. Cc1nnc(N2C[C@H](C(=O)NCC3CC3)[C@@H]3CCO[C@@H]3C2)s1
4. Cc1ccccc1CN1C[C@@H]2CC[C@H](C1)N(CC1CCC1)C2=O

Output:
1. 45.4%
2. 18.8%
3. 2.91%
4. 34.4%

Report Percent Effect for each item below.
1. O=C([C@@H]1C[C@@H]2CCN(C3CCOCC3)C[C@H]2O1)N1CCCC1
2. CN1CCN(C(=O)[C@H]2C[C@@H]3CCN(c4ncc(F)cn4)C[C@@H]3O2)CC1

Output:
6.94%
7.55%

Report Percent Effect for each item below.
1. Cc1c(CN2CCOCC2)c(O)n(CCc2ccccc2)c(=O)c1C#N
2. O=C(CC1CC1)N1C[C@@H]2CN(c3ccccc3)C(=O)[C@@H]2C1
3. Cc1cnc(N2C[C@@H]3CN(Cc4ccco4)CCC[C@]3(C(=O)O)C2)nc1
4. Cc1ccncc1C(=O)N1CC[C@@]2(O)CCN(C3CCCCC3)C[C@H]2C1

Output:
1. 60.5%
2. 21.1%
3. 19.4%
4. 14.5%

----------
Give measured Percent Effect for each item. Keep answers brief.
# TARGET_OR_TEST_SYSTEM: Histidine--tRNA ligase (Leishmania infantum)
# MEASUREMENT_DESCRIPTION: Leishmania infantum Histidine tRNA synthetase (LdHisRS)
# Assay type: functional
# Parameters: scale not given: in the data most compounds retested in dose-response had high values
# CONDITION_CONTEXT: 30 µM
In all, about 69,000 compounds went through this assay and about 420 (0.61%) showed an effect of 50% or more. This is one part of a sample in which strong results are shown more often than they occur.
Answers are plain numbers, in %.

- MOLECULE: "Cc1ccc(CN2CCC[C@@H]3CN(C(=O)c4ccco4)C[C@@H]32)o1"
  Percent Effect (%): 15.5

Report Percent Effect for each item below.
1. COCc1nc(CNc2cccc(-c3csc(C)n3)c2)cs1
2. COc1ccc(CC(=O)N(C)c2cccnc2N(C)C)c(Cl)c1

Output:
1: -6.67; 2: 57.1

Report Percent Effect for each item below.
1. Cn1cccc1C(=O)N1CC[C@H]2[C@@H]1CCC(=O)N2CC1CC1
2. c1ccc(-n2cc(CNCC3CCCN3c3cccnn3)nn2)cc1 (stereo unspecified)
3. COCCN1C[C@@H]2CCCO[C@@H]2[C@H](NC(=O)c2cnccn2)C1
4. O=C(NCc1ccccn1)[C@@]12CCO[C@@H]1CCN(c1ncccn1)C2
5. CC(C)CN1C[C@@H]2OCC(=O)N(Cc3nccn3C)[C@@H]2C1
6. COCc1nc2cc(NCc3csc(C)n3)ccc2o1
7. Cc1nccn1-c1cccc(C2CCCN(C3CCCC3)C2)n1 (stereo unspecified)

Output:
1: 21.1; 2: 6.14; 3: 11.3; 4: 15.4; 5: 23; 6: 29.5; 7: 65.2

Report Percent Effect for each item below.
1. c1cc(CN2CC[C@@H]3[C@@H](CO[C@H]3CN3CCOCC3)C2)cs1
2. CN(C)c1ncccc1N(C)C(=O)Cn1cc(-c2ccccc2)nn1

Output:
18.1
0

Report Percent Effect for each item below.
1. COc1cccc(OCC(=O)N(C)c2cccnc2N(C)C)c1
2. CC(C)c1nccn1-c1cccc(C2CCCN(C3CCCC3)C2)n1 (stereo unspecified)
3. Cc1nccn1-c1cccc(C2CCCN(C(=O)c3cc[nH]n3)C2)n1 (stereo unspecified)

Output:
[10.2, 22.9, 17.1]

----------
Give measured Percent Effect for each item. Keep answers brief.
# TARGET_OR_TEST_SYSTEM: Histidine--tRNA ligase (Leishmania infantum)
# MEASUREMENT_DESCRIPTION: Leishmania infantum Histidine tRNA synthetase (LdHisRS)
# Assay type: functional
# Design: scale not given: in the data most compounds retested in dose-response had high values
# CONDITION_CONTEXT: 30 µM
In all, about 69,000 compounds went through this assay and about 420 (0.61%) showed an effect of 50% or more. This is one part of a sample in which strong results are shown more often than they occur.
Numbers only, in %.

Worked examples, 3 compounds total:
- COMPOUND: "O=C(Nc1ccc(=O)n(Cc2ccccc2Cl)c1)C1CC1"
  UNITS_SYMBOL: "%"
  Percent Effect: 114
- COMPOUND: "CC(=O)N1CCN(c2ccccc2CNc2cncc(C)c2)CC1"
  UNITS_SYMBOL: "%"
  Percent Effect: 11
- COMPOUND: "CCOCC(O)CNc1cncc(Br)c1 (configuration not stated)"
  UNITS_SYMBOL: "%"
  Percent Effect: 46.6

Report Percent Effect for each item below.
1. COc1ccc(C2CC(=O)NCc3nc(N(C)C)sc32)c(O)c1 (configuration not stated)
2. COc1ccc(NCc2ccccc2N2CCN(C(C)=O)CC2)cn1
3. COCCOCCNc1cncc(Br)c1
4. COc1ccc(OC)c(C2CCN(CC(C)(C)N3CCOCC3)C2)c1 (configuration not stated)
5. COc1ccc(C2CC(=O)Nc3nc(N4CCOCC4)sc32)cc1 (configuration not stated)

Output:
1: 10.8; 2: 24.7; 3: 45.5; 4: 12.7; 5: 105
